Tested on: PPARg DBDmut:RXRa IVT, anti-PPARg (DBD mutation: PPARg1 K132A/R137A, NR concentration 270 nM, RXRa partner concentration 90 nM)
Test: PBM binding z-score (relative to random genomic background probes); higher = stronger binding; sequences stand for … in GC…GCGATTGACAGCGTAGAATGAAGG
Quick rule: PBM binding z-score of at least 0.4 means Condition met, below that means Condition not met.

Answered cases to consult:
GCAGGCAGGTGAAACGCAGGTAACTCAGGGTGGC Condition not met
CCTACTGGTCCAAAGGTCATTGATTCCAATGCTC Condition not met
CCTCACGGGTCAAGGTTATAGCACGGGTGGTACG Condition not met

Could you please find out whether "ATCTGTAGGTTACATCCGGGTCATTCAGGCTATG" has PBM binding z-score that meets 0.4 or exceeds it? Condition met

Then what about the sequence "CTACCAAGGTGAACCAGGTCGTTGATTACTATTC" ? Condition not met

Then what about the sequence "CCAACTAGGTCACAGAGGTCAAAGTCCGTGCGTA" ? Condition met

Then what about the sequence "TAGCCTAGGTCATGGGCCCGTATACCACGCGAAC" ? Condition not met

Then what about the sequence "CCTAGCAGGCCAGGATCACTCAAGCATTTCGCTT" ? Condition not met

Then what about the sequence "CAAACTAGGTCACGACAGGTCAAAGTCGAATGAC" ? Condition met

Then what about the sequence "GCTGACAGGTGAAACGCAGGTAACTCAGGGTGGC" ? Condition not met

Then what about the sequence "AGGCAAAGTTCATCTAGGTAACGTAAGATATGCT" ? Condition met

Then what about the sequence "CGTCCAAGATCAAAGGTCAGTGAAGAGATGACGG" ? Condition met

Then what about the sequence "ATCTCTAGGTAACAAGTTCAGTGCAAGAGAGGAC" ? Condition met

Then what about the sequence "CGAACTAGGTCAGTGACAGGACAGTGAATAGTAA" ? Condition met

Then what about the sequence "TCTCGTAGATCAGCAGGTTAAGAAAGCTGGCCAA" ? Condition not met

Then what about the sequence "ATCGAAAGGCCGACGAGGTGAGTATACACCGTTT" ? Condition not met

Then what about the sequence "CCGACTGGGGCAGAAAGGTTACCATACCATCCGG" ? Condition not met

Then what about the sequence "AGTCAAACTTCATCTAGGTAACGTAAGATATGCT" ? Condition met

Then what about the sequence "GCTAGCAGGCGATTTGGGTCACTCAATGACGGGC" ? Condition not met
